Cited source: patent US11590116B2

# Lookup of reported Ki keyed by entry
target: recombinant human ALK5 (TGF-βR1) protein (Homo sapiens); construct: purchased Life Technologies PR9075A; test: Biochemical ALK5 (TGF-βR1) assay to measure pKi (LANCE Ultra ULight kinase assay); details: apparent pKi from pIC50 by Cheng-Prusoff, read-out: ALK5 pKi (converted)

Examples from the recorded data:
INSERT INTO results (molecule, recorded_measurement) VALUES
  ('Cc1cccc(-c2[nH]cnc2-c2ccc3ncc(C(=O)OCCCN4CC5(CCNCC5)C4)cc3c2)n1', '0.0398 to 0.316 nM'),
  ('Cc1cccc(-c2n[nH]cc2-c2ccc3ncc(C4=CCC(NC(C)C)CC4)cc3n2)n1 (stereo not drawn)', '< 0.0316 nM'),
  ('Cc1cccc(-c2[nH]ncc2-c2ccc3nccc(C(=O)OC[C@@H]4CCCN4)c3c2)n1', '0.0398 to 0.316 nM'),
  ('Cc1cccc(-c2n[nH]cc2-c2ccc3ncc(-c4ccc(C5CCCN(Cc6ccccc6)C5)cc4)cc3n2)n1 (stereo not drawn)', '0.0398 to 0.316 nM'),
  ('CCOC(=O)c1ccnc2ccc(-c3c(-c4cccc(C)n4)n[nH]c3-c3cccc(F)c3)nc12', '3.98 to 31.6 nM'),
  ('Cc1cccc(-c2[nH]ncc2-c2ccc3ncc(C(=O)OCCN4CC[C@@H](N)C4)cc3c2)n1', '0.0398 to 0.316 nM'),
  ('Cc1cccc(-c2nnn(Cc3ccccc3)c2-c2ccc3ncc(N4CCC(N5CCN(C)CC5)CC4)cc3n2)n1', '0.0398 to 0.316 nM'),
  ('Cc1cccc(-c2n[nH]cc2-c2ccc3nccc(NC(=O)CN4CCN(C(C)C)CC4)c3n2)n1', '0.398 to 3.16 nM');

The record that follows has no Ki shown yet.
May I ask what Ki has been recorded for `Cc1cccc(-c2[nH]cnc2-c2ccc3ncc(-c4ncc(C5=CCNCC5)s4)cc3c2)n1` ?
0.0398 to 0.316 nM

----------
# Lookup of reported Ki keyed by entry
Target: recombinant human ALK5 (TGF-βR1) protein (Homo sapiens, UniProt P36897)
Construct: purchased Life Technologies PR9075A
Sequence (P36897 34-503): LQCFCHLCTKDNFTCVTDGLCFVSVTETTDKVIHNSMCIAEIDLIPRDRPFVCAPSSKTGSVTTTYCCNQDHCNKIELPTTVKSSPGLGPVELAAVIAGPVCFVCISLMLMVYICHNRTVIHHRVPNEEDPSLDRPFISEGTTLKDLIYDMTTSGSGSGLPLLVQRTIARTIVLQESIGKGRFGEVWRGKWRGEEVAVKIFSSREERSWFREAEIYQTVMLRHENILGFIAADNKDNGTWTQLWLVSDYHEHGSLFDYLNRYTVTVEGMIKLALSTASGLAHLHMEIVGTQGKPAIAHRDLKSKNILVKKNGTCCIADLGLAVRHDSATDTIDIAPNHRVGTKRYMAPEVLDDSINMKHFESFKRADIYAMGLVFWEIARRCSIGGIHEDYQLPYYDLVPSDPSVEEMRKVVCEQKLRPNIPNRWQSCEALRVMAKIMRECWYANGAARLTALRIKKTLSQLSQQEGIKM
Test: Biochemical ALK5 (TGF-βR1) assay to measure pKi (LANCE Ultra ULight kinase assay)
Settings: apparent pKi from pIC50 by Cheng-Prusoff, read-out: ALK5 pKi (converted)

Examples from the recorded data:
INSERT INTO assay_data (molecule, recorded_measurement) VALUES
  ('Cc1nc(-c2nc3ccccn3c2-c2ccc3ncc(N4CCNCC4)cc3n2)ccc1F', '0.0398 to 0.316 nM'),
  ('Cc1cccc(-c2n[nH]cc2-c2ccc3ncc(N4CCC[C@@H](N(C)C)C4)cc3n2)n1', '0.0398 to 0.316 nM'),
  ('Cc1cccc(-c2[nH]cnc2-c2ccc3ncc(-c4ncc(C(=O)OCC5CNC5)cn4)cc3c2)n1', '0.0398 to 0.316 nM'),
  ('CNCCn1cc(-c2cnc3ccc(-c4nc[nH]c4-c4ccc(F)c(C)n4)nc3c2)cn1', '0.0398 to 0.316 nM'),
  ('Cc1cccc(-c2n[nH]cc2-c2ccc3nccc(CN4CC(N5CCOCC5)C4)c3n2)n1', '0.398 to 3.16 nM'),
  ('Cc1cccc(-c2[nH]ncc2-c2ccc3ncc(C(=O)O[C@@H]4CCNC4)cc3n2)n1', '0.398 to 3.16 nM');

May I ask what Ki has been recorded for `Cc1cccc(-c2[nH]cnc2-c2ccc3ncc(N4CCC5(CC4)CNC5)cc3c2)n1` ?
0.0398 to 0.316 nM

Do the same for `Cc1cccc(-c2[nH]cnc2-c2ccc3ncc(-c4cnc(C(=O)O[C@@H]5CCNC5)nc4)cc3c2)n1` please
0.0398 to 0.316 nM

Do the same for Cc1cccc(-c2[nH]cnc2-c2ccc3ncc(NCCN4CCNC(C(=O)O)C4)cc3c2)n1 (stereo not shown) please
0.0398 to 0.316 nM

Do the same for `COc1cnc2ccc(-c3c[nH]nc3-c3cccc(C)n3)nc2c1` please
< 0.0316 nM

Do the same for `Cc1cccc(-c2[nH]cnc2-c2ccc3ncc(-c4cccc(C(=O)O[C@@H]5CCNC5)c4)cc3c2)n1` please
0.0398 to 0.316 nM

Do the same for `Cc1cccc(-c2[nH]ncc2-c2ccc3nccc(C(=O)OC4CNC4)c3c2)n1` please
0.0398 to 0.316 nM

Do the same for `Cc1cccc(-c2n[nH]cc2-c2ccc3ncc(-c4nc5n(n4)CCNC5)cc3n2)n1` please
0.0398 to 0.316 nM

Do the same for `Cc1cccc(-c2n[nH]cc2-c2ccc3nccc(-c4cnco4)c3n2)n1` please
0.0398 to 0.316 nM

Do the same for `Cc1cccc(-c2n[nH]cc2-c2ccc3nccc(-c4cnn(CCN5CCOCC5)c4)c3n2)n1` please
0.0398 to 0.316 nM

Do the same for `Cc1cccc(-c2n[nH]cc2-c2ccc3ncc(-c4c(C)nn(C)c4C)cc3n2)n1` please
0.0398 to 0.316 nM
